Assay: A qHTS for Small Molecule Inhibitors of Shiga Toxin
Details: Vero cells, Shiga toxin protein synthesis inhibition reporter; at 38.7 µM
About 27,000 (9.3%) of roughly 290,000 compounds were called active. Cut-off read from the data, not from the text of the source: active = inhibition mostly above about 28% (no sharp cut-off); inactive = mostly below about 43%. For the sample, actives were picked, then their nearest neighbours and some compounds at random.
Classes used: Yes for active, No for inactive

compound	classAssignment
COc1cc(NC(=O)C2CC(c3ccccc3O)=NO2)c(OC)cc1Cl (stereo not given)	No
COc1ccccc1C(C)NC(=O)Cc1ccsc1 (stereo not given)	No
CC(C)OC(=O)c1ccc(COc2ccc3ccc(=O)oc3c2)o1	Yes
Cc1ccc(S(=O)(=O)N(CC(O)CN2C(=O)NC(C)(C)C2=O)c2cccc([N+](=O)[O-])c2)cc1 (stereo not given)	No
O=C(NCCSc1ccccc1)c1ccco1	Yes
CCOC(=O)c1oc2c(CN3CCN(C)CC3)c(O)ccc2c(=O)c1-c1ccc(Br)cc1	No
CC(Sc1nc(-c2ccccc2)cc(C(F)(F)F)n1)C(=O)Nc1ccc2c(c1)OCO2 (stereo not given)	No
COc1ccc(N/N=C2/CCCCC2=O)cc1	No
FC(F)(F)c1cccc(NC(=S)Nc2cccc(Cl)c2)c1	No
COc1ccc2c(c1)c(C(=O)N/N=C/c1cccs1)c(C)n2C	No
C/C(=N/NC(=O)c1ccncc1)c1ccc2c(c1)OCO2	No
Cc1ccc(C(=O)NCCNC(=O)c2ccccc2)cc1	No
Cc1nc([N+](=O)[O-])cn1CC(=O)Nc1ccc2c(c1)OCO2	No
COc1cc2c(cc1OC)C(C)N(S(=O)(=O)c1cnc(Cl)c(Cl)c1)CC2 (stereo not given)	No
O=C(O)CCCN1C(=O)c2ccccc2Sc2ncccc21	No
Cc1c(C(=O)N2CC(C)OC(C)C2)sc2nc(-c3ccccc3)cn12 (stereo not given)	Yes
O=C(Nc1cccc(S(=O)(=O)Nc2ccc(Cl)cc2)c1)c1ccc2c(c1)OCCO2	No
COC(=O)c1ccc(COc2ccc(C#N)cc2)o1	No
Cc1ccc(C(=O)NCCNS(=O)(=O)c2ccccc2)cc1	No
O=S1(=O)N=C(N(CCO)/N=C/c2ccccc2F)c2ccccc21	No
O=C(CSc1ccc(-c2ccccc2)nn1)NCC1CCCO1 (stereo not given)	No
O=C(Nc1ccc2c(c1)OCO2)c1sc2cc(Cl)ccc2c1Cl	No
COc1ccc(C(C(O)C(=O)c2c[nH]c3ccccc23)N2CCN(c3ccccc3)CC2)cc1 (stereo not given)	No
CCCc1ccc(OCC(=O)NNC(=S)NC(=O)c2ccco2)cc1	No
O=C(Nc1ccc(S(=O)(=O)N2CCOCC2)cc1)c1ccc2ncsc2c1	Yes
Cc1noc(C)c1COc1ccc2ccc(=O)oc2c1	No
Cc1ccccc1CSCC(=O)NC(=O)NC(C)(C)C	No
Cn1cc([N+](=O)[O-])c(C(=O)Nc2cnn(Cc3ccc(F)cc3)c2)n1	No
CCOc1ccc(-n2c(N)c(C(=O)NCC3CCCO3)sc2=S)cc1 (stereo not given)	No
COc1ccc(C(=O)NCCSc2ccccc2C)cc1	Yes

###

Assay: A qHTS for Small Molecule Inhibitors of Shiga Toxin
Conditions: Vero cells, Shiga toxin protein synthesis inhibition reporter; at 38.7 µM
About 27,000 (9.3%) of roughly 290,000 compounds were called active. Cut-off read from the data, not from the text of the source: active = inhibition mostly above about 28% (no sharp cut-off); inactive = mostly below about 43%. Only a selection was taken, and actives are over-represented in it overall.
Classes used: active, inactive

compound	classAssignment
Cc1cccc(NC(=O)NC2(C)CCS(=O)(=O)C2)c1 (centres undefined)	inactive
COc1ccccc1N1N=C(c2cccs2)CC1c1ccccc1 (centres undefined)	active
COc1ccc(C2CC(c3cccs3)=NN2C(=O)COC(=O)c2cc3ccccc3cc2O)cc1OC (centres undefined)	inactive
Oc1ccccc1C1=NN(c2ccccc2)C(c2ccccc2)C1 (centres undefined)	active
